Source: patent US12673946B2

# target-under-test: human TRPV4 (Homo sapiens, UniProt Q9HBA0)
# Construct: host or cells: tetracycline-inducible Flp-In T-REx 293 cells
# Sequence (Q9HBA0 whole entry): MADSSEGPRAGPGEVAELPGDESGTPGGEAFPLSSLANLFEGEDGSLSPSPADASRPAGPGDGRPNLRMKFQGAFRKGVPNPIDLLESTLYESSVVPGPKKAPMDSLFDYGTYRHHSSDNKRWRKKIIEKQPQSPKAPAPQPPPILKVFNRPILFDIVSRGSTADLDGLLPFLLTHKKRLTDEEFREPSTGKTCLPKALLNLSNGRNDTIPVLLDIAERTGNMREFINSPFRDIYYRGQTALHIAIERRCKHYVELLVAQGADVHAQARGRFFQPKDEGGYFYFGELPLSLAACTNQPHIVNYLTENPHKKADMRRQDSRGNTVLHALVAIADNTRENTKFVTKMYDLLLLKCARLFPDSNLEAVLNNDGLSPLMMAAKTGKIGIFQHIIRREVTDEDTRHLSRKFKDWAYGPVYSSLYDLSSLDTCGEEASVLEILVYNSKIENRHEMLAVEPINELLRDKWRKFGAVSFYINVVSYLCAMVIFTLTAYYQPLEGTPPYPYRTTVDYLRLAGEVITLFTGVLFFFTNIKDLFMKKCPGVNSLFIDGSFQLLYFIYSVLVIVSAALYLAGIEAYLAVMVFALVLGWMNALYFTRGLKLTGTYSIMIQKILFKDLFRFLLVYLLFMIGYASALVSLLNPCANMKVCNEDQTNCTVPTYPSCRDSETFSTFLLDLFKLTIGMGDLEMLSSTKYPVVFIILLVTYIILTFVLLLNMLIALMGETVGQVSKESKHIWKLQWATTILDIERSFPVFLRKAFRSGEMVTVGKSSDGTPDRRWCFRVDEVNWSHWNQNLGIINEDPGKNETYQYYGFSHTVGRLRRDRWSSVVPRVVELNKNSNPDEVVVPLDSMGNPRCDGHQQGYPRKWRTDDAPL
# procedure-summary: Hypotonicity-induced Ca2+ influx (Fluo-4, FDSS)
# Type: cell-based
# test-settings: Flp-In T-REx 293 cells stably expressing human TRPV4, compounds listed by potency bin (<10 nM Tables 96-1/96-2, <3 nM Table 97)
pIC50: −log10 of the molar value.

{"compound": "O=C([C@H](O)c1cccc(Cl)c1)N1CCCc2nc(C3(c4cccc(C5CCCCC5)c4)CC3)[nH]c(=O)c2C1 [29-2]", "pIC50": "> 8.52"}
{"compound": "O=C([C@H](O)c1cccc(C(F)(F)F)c1)N1CCCc2nc(C3(c4cccc(-c5ccc(F)c(F)c5)c4)CC3)[nH]c(=O)c2C1 [42-62]", "pIC50": "> 8.00"}
{"compound": "CC(C)(C)c1cccc(-c2cccc([C@@H](O)C(=O)N3CCc4nc(C5(c6ccccc6)CC5)[nH]c(=O)c4C3)c2)c1 [44-74]", "pIC50": "> 8.52"}
{"compound": "O=C([C@H](O)c1cccc(-c2ccc(C(F)(F)F)cc2)c1)N1CCCc2nc(C3(c4cccc(Cl)c4)CC3)[nH]c(=O)c2C1 [50-24]", "pIC50": "> 8.00"}
{"compound": "O=C([C@H](O)c1cccc(-c2cccc(OC(F)(F)F)c2)c1)N1CCCc2nc(C3(c4ccccc4)CC3)[nH]c(=O)c2C1 [49-14]", "pIC50": "> 8.52"}
{"compound": "O=C([C@H](O)c1cccc(Cl)c1)N1CCc2nc(C3(c4cccc(-c5cnsc5)c4)CC3)[nH]c(=O)c2C1 [34-2]", "pIC50": "> 8.00"}
{"compound": "CC(C)(C)c1cccc(-c2cccc(C(O)C(=O)N3CCCc4nc(C5(c6ccccc6)CC5)[nH]c(=O)c4C3)c2)c1 (centres unmarked) [49-10]", "pIC50": "> 8.00"}
{"compound": "O=C([C@H](O)c1cccc(-c2cccc(C(F)(F)F)c2)c1)N1CCCc2nc(C3(c4ccccc4)CC3)[nH]c(=O)c2C1 [49-13]", "pIC50": "> 8.52"}
{"compound": "O=C([C@H](O)c1cccc(Cl)c1)N1CCc2nc(C3(c4cc(C5CCCC5)cs4)CC3)[nH]c(=O)c2C1 [23-2]", "pIC50": "> 8.00"}
{"compound": "CC(C)(C)c1cccc(-c2cccc([C@@H](O)C(=O)N3CCCc4nc(C5(c6cncc(-c7ccccc7)c6)CC5)[nH]c(=O)c4C3)c2)c1 [56-4]", "pIC50": "> 8.00"}
{"compound": "O=C([C@H](O)c1cccc(Cl)c1)N1CCCc2nc(C3(c4cccc(C5CCCC5)c4)CC3)[nH]c(=O)c2C1 [29-3]", "pIC50": "> 8.52"}
{"compound": "CC(C)Oc1cccc(-c2cccc(C(F)(F)C(=O)N3CCCc4nc(C5(c6ccccc6)CC5)[nH]c(=O)c4C3)c2)c1 [58-3]", "pIC50": "> 8.00"}
{"compound": "O=C([C@H](O)c1cccc(-c2cccc(C(F)(F)F)c2)c1)N1CCCc2nc(C3(c4cccc(-c5csc6ccccc56)c4)CC3)[nH]c(=O)c2C1 [52-9]", "pIC50": "> 8.00"}
{"compound": "O=C([C@H](O)c1cccc(C(F)(F)F)c1)N1CCCc2nc(C3(c4cccc(-c5ccc(N6CCC(OCc7ccccc7)CC6)nc5)c4)CC3)[nH]c(=O)c2C1 [42-88]", "pIC50": "> 8.52"}
{"compound": "O=C([C@H](O)c1cccc(-c2cccc(F)c2)c1)N1CCCc2nc(C3(c4cncc(C5CCCCC5)c4)CC3)[nH]c(=O)c2C1 [55-11]", "pIC50": "> 8.00"}
{"compound": "N#Cc1cccc(-c2cccc([C@@H](O)C(=O)N3CCCc4nc(C5(c6cccc(Cl)c6)CC5)[nH]c(=O)c4C3)c2)c1 [50-25]", "pIC50": "> 8.52"}
{"compound": "O=C([C@H](O)c1cccc(C(F)(F)F)c1)N1CCCc2nc(C3(c4cccc(-c5ccccc5)c4)CC3)[nH]c(=O)c2C1 [42-16]", "pIC50": "> 8.00"}
{"compound": "O=C(C(O)c1cccc(-c2ccc(Cl)cc2)c1)N1CCCc2nc(C3(c4cccc(F)c4)CC3)[nH]c(=O)c2C1 (centres unmarked) [17-34]", "pIC50": "> 8.00"}
{"compound": "O=C([C@H](O)c1cccc(C(F)(F)F)c1)N1CCCc2nc(C3(c4cc(CCC5(O)CCCCC5)cs4)CC3)[nH]c(=O)c2C1 [30-14]", "pIC50": "> 8.00"}
{"compound": "O=C(Cc1cccc(-c2cccc(OC(F)(F)F)c2)c1)N1CCCc2nc(C3(c4ccccc4)CC3)[nH]c(=O)c2C1 [57-2]", "pIC50": "> 8.52"}
{"compound": "Cc1cccc(-c2cccc(C3(c4nc5c(c(=O)[nH]4)CN(C(=O)[C@H](O)c4cccc(C(F)(F)F)c4)CCC5)CC3)c2)c1 [42-64]", "pIC50": "> 8.00"}
{"compound": "O=C([C@H](O)c1cccc(C(F)(F)F)c1)N1CCCc2nc(C3(c4cccc(-c5ccc(C(F)(F)F)nc5)c4)CC3)[nH]c(=O)c2C1 [42-46]", "pIC50": "> 8.52"}
{"compound": "O=C(C(O)c1cccc(-c2cc(Cl)cc(C(F)(F)F)c2)c1)N1CCc2nc(C3(c4ccccc4)CC3)[nH]c(=O)c2C1 (centres unmarked) [44-3]", "pIC50": "> 8.00"}
{"compound": "O=C(c1csc(C2(c3nc4c(c(=O)[nH]3)CN(C(=O)[C@H](O)c3cccc(C(F)(F)F)c3)CCC4)CC2)c1)N(Cc1ccccc1)Cc1ccccc1 [59-12]", "pIC50": "> 8.00"}
{"compound": "O=C([C@H](O)c1cccc(C(F)(F)F)c1)N1CCCc2nc(C3(c4cccc(-c5cnc(N6CCCC6)nc5)c4)CC3)[nH]c(=O)c2C1 [42-3]", "pIC50": "> 8.52"}
{"compound": "O=C(C(O)c1cccc(-c2cccc(F)c2)c1)N1CCCc2nc(C3(c4cccc(Cl)c4)CC3)[nH]c(=O)c2C1 (centres unmarked) [17-5]", "pIC50": "> 8.52"}
